Assay: Cmax in Beagle dog at 5 mg/kg, iv
Type: ADME, organism-based, Canis lupus familiaris
Design: dose 5 mg/kg, route intravenous
Details: in vivo
Property: Cmax

Task: For the molecule shown here, C[C@@H]1NC(c2cc(C#N)ccn2)=N[C@@]1(c1ccc(F)cc1)c1ccc(F)nc1 , give the reported Cmax.
Output: 25 µM

====

Biological target: Neuropeptide Y receptor type 2 (Homo sapiens, UniProt P49146)
Sequence (P49146 whole entry): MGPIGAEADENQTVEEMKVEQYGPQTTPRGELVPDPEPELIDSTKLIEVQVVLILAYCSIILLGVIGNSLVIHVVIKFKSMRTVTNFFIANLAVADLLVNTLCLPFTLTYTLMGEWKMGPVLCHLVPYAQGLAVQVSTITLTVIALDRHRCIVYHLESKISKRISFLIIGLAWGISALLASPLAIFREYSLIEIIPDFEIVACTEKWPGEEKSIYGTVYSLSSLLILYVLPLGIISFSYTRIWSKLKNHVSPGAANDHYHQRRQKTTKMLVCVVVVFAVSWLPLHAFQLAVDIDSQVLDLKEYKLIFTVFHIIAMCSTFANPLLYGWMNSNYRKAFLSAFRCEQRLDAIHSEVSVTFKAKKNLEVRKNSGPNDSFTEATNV
Property: IC50

Task: Test system Neuropeptide Y receptor type 2 (Homo sapiens, UniProt P49146); read-out IC50; what value for C[C@@H]1NC(c2cc(C#N)ccn2)=N[C@@]1(c1ccc(F)cc1)c1ccc(F)nc1 ?
Output: > 10 µM
